- EXPERIMENT_DESCRIPTION: Wnt/beta-catenin pathway activators, primary screen, cell-based, plate reader, single point (AID 743398)
- APPLIED_CONDITIONS: Wnt/beta-catenin reporter cell assay, activator, at 9.35 µM
The campaign covered roughly 300,000 compounds. About 3,600 (1.2%) were called active. No stated cut-off is given here; in the data, active means activation above about 30% (passing the limit was not always enough); inconclusive means no clear call, values can overlap the other calls. What follows is part of a selection rich in actives, with near analogues and random picks from the rest.
Classes used: active, inactive

[
  {
    "COMPOUND": "COc1ccc(CN2C(=O)C(C)S/C2=N/N=C/c2ccco2)cc1 (centres undefined)",
    "ASSIGNED_CLASS": "active"
  },
  {
    "COMPOUND": "COc1ccc(Nc2nnc(C)c3ccccc23)cc1",
    "ASSIGNED_CLASS": "inactive"
  },
  {
    "COMPOUND": "COc1ccccc1N1CCN(/N=C/c2ccc(O)cc2O)CC1",
    "ASSIGNED_CLASS": "active"
  },
  {
    "COMPOUND": "Cc1cccc(CNC(=O)c2sc(=O)n(Cc3ccccc3C)c2C)c1",
    "ASSIGNED_CLASS": "inactive"
  },
  {
    "COMPOUND": "COc1ccc(Cc2nc3ccc(C(=O)NCC4CCOCC4)cc3o2)cc1OC",
    "ASSIGNED_CLASS": "inactive"
  },
  {
    "COMPOUND": "COc1ccccc1NC(=O)/C=C/C(=O)O",
    "ASSIGNED_CLASS": "inactive"
  },
  {
    "COMPOUND": "CCCCNc1cccc2c1S(=O)(=O)N[C@@H](C)CO2",
    "ASSIGNED_CLASS": "inactive"
  },
  {
    "COMPOUND": "COc1cccc(-c2cc3nc(NCCOc4ccccc4Cl)n(C)c(=O)c3s2)c1",
    "ASSIGNED_CLASS": "inactive"
  },
  {
    "COMPOUND": "O=C(NCc1cccc(C(F)(F)F)c1)c1ccc2sc(COCCO)nc2c1",
    "ASSIGNED_CLASS": "inactive"
  },
  {
    "COMPOUND": "O=S(=O)([N-]c1nc2ccccc2nc1-[n+]1ccc(Cc2ccccc2)cc1)c1ccc(Br)s1",
    "ASSIGNED_CLASS": "active"
  },
  {
    "COMPOUND": "O=C(Cc1nn[nH]n1)NCCC1=CCCCC1",
    "ASSIGNED_CLASS": "inactive"
  },
  {
    "COMPOUND": "O=Cc1ccc(Oc2cccc(C(F)(F)F)c2)nc1",
    "ASSIGNED_CLASS": "inactive"
  },
  {
    "COMPOUND": "C=CCN1C(=O)C(Cc2cccc(Cl)c2)S/C1=N/N=C/c1ccco1 (centres undefined)",
    "ASSIGNED_CLASS": "inactive"
  },
  {
    "COMPOUND": "O=C(NCCC1=CCCCC1)c1ccc(Cl)c([N+](=O)[O-])c1",
    "ASSIGNED_CLASS": "inactive"
  },
  {
    "COMPOUND": "CC(=O)Oc1ccc(Cn2c(C)c(C(=O)NCc3ccc(C#N)cc3)sc2=O)cc1",
    "ASSIGNED_CLASS": "inactive"
  },
  {
    "COMPOUND": "CSCCNC(=O)c1ccc2nc(Cc3ccccc3F)oc2c1",
    "ASSIGNED_CLASS": "active"
  },
  {
    "COMPOUND": "CC1(C)OC(=O)C2=C(CC(CCc3ccccc3)OC2c2ccc(Cl)cc2)O1 (centres undefined)",
    "ASSIGNED_CLASS": "inactive"
  },
  {
    "COMPOUND": "O=C(CSc1nc2ccccc2[nH]1)c1cccs1",
    "ASSIGNED_CLASS": "active"
  },
  {
    "COMPOUND": "O=C1N/C(=N\\N=C\\c2ccco2)SC1Cc1ccc(F)cc1 (centres undefined)",
    "ASSIGNED_CLASS": "inactive"
  },
  {
    "COMPOUND": "CN(Cc1ccccc1)C(=O)CSc1nc2ccccc2[nH]1",
    "ASSIGNED_CLASS": "inactive"
  },
  {
    "COMPOUND": "COc1ccc(-c2nnc(-c3ccc4ccccc4c3)o2)cc1",
    "ASSIGNED_CLASS": "inactive"
  },
  {
    "COMPOUND": "O=C(O)/C=C/C(=O)Nc1ccc(F)cc1F",
    "ASSIGNED_CLASS": "inactive"
  },
  {
    "COMPOUND": "COCCNC(=O)c1ccc2nc(Cc3ccc(OC)c(OC)c3)oc2c1",
    "ASSIGNED_CLASS": "inactive"
  },
  {
    "COMPOUND": "COc1ccccc1N1CCN(/N=C\\C(Br)=C\\c2ccccc2)CC1",
    "ASSIGNED_CLASS": "inactive"
  }
]
